Test system: NCI-H209;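 also: growth inhibition of human NCI-H209 cells, measured by a cell viability assay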
Method Description: cells
Assay type: functional, cell-based
Condition Description: Homo sapiens
Description: SANGER: Inhibition of human NCI-H209 cell growth in a cell viability assay.
pIC50: −log10 of the molar value.
Experimental Endpoint: pIC50

Compound Smiles | Experimental Endpoint | Result
C=CCc1cccc(/C=N/NC(=O)CN2CCN(Cc3ccccc3)CC2)c1O | pIC50 | < 5.59
Cc1cc([C@@H](C)Nc2ccccc2C(=O)O)c2nc(N3CCOCC3)cc(=O)n2c1 | pIC50 | < 5.29
CC1=C2C[C@H]3[C@@H](CC=C4C[C@@H](O)CC[C@@]43C)[C@@H]2CC[C@]12O[C@@H]1C[C@H](C)CN[C@H]1[C@H]2C | pIC50 | < 4.80

Moving on to another molecule below.
# input // query pIC50 value for entry Nc1ccn([C@@H]2O[C@H](CO)[C@@H](O)[C@@H]2O)c(=O)n1
# output < 5.70
